- EXPERIMENTAL DETAILS: Primary qHTS for delayed death inhibitors of the malarial parasite plastid, 48 hour incubation
- SETUP CONDITIONS: P. falciparum luciferase growth in erythrocytes; series mostly up to 28.7 µM
About 18,000 (5.8%) of roughly 310,000 compounds were called active. Not shown: some 22% with an inconclusive outcome. Calls follow the shape of the dose curve; as a rule, active = well fitted inhibition curve with a large enough effect; inconclusive = small, poorly fitted or top-dose-only effect, or another doubt; inactive = no such curve, though single readings can be large or run the other way. What follows is part of a selection rich in actives, with near analogues and random picks from the rest.
The reply should be one of these categories: active, inactive

Recorded results for 2 compounds are shown here.
[
  {
    "COMPOUND": "Cc1cccc(C(=O)NCCCN(C)CCCNC(=O)c2cccc(C)c2)c1",
    "QUALITATIVE LABEL": "inactive"
  },
  {
    "COMPOUND": "CCOc1ccc(C(=O)NC(=S)Nc2ccc(N3CCOCC3)c(Cl)c2)cc1[N+](=O)[O-]",
    "QUALITATIVE LABEL": "inactive"
  }
]

Test call, this compound: COc1ccc(C(C(=O)NC2CCCCC2)N(C(=O)c2snc(C(N)=O)c2N)c2ccccc2OC)cc1 (centres undefined)
active

Test call, this compound: COc1ccc(-c2cnc(SCCNC(=O)c3ccc4c(c3)OCO4)[nH]2)cc1
inactive

====

- EXPERIMENTAL DETAILS: Primary qHTS for delayed death inhibitors of the malarial parasite plastid, 48 hour incubation
- SETUP CONDITIONS: P. falciparum luciferase growth in erythrocytes; series mostly up to 28.7 µM
- Text: The goal of this screen is to discover new antimalarial compounds that act by inhibiting the development of the apicoplast in the malarial parasite Plasmodium falciparum. […] We have developed a cell-based assay that measures parasite growth based on the expression of an integrated copy of a firefly luciferase reporter. […] Growth inhibition is detected by a decrease in luciferase activity. […]
Hit rate of the full screen: of about 310,000 compounds, about 18,000 (5.8%) were called active. Roughly 22% stayed inconclusive and do not appear here. Calls come from the whole dose curve; as a rule, active = well fitted inhibition curve with a large enough effect; inconclusive = small, poorly fitted or top-dose-only effect, or another doubt; inactive = no such curve, though single readings can be large or run the other way. What follows is part of a selection rich in actives, with near analogues and random picks from the rest.
The reply should be one of these categories: 1 (yes) for active, 0 (no) for inactive

[
  {
    "COMPOUND": "Cc1ccc2c(c1)C1CN(C)CCC1N2C(=S)Nc1ccc(OC(F)F)cc1 (stereo not drawn)",
    "QUALITATIVE LABEL": "0 (no)"
  },
  {
    "COMPOUND": "CCC(C)Sc1nc2c(cnn2-c2ccc(F)cc2)c(=O)[nH]1 (stereo not drawn)",
    "QUALITATIVE LABEL": "0 (no)"
  },
  {
    "COMPOUND": "COC(=O)C1=C(c2cccc(OCc3ccccc3)c2)C[C@@H]2CC[C@H]1N2C(=O)NNCc1ccccc1",
    "QUALITATIVE LABEL": "1 (yes)"
  },
  {
    "COMPOUND": "COc1ccc2[nH]c(C)c(CCN(Cc3cccs3)C(=S)Nc3ccccc3OC)c2c1",
    "QUALITATIVE LABEL": "1 (yes)"
  },
  {
    "COMPOUND": "O=C(Cc1ncc(C(F)(F)F)cc1Cl)Nc1cccc(Br)c1",
    "QUALITATIVE LABEL": "0 (no)"
  }
]

Test call, this compound: COC(=O)C1=C(c2cccc(OCc3ccccc3)c2)C[C@@H]2CC[C@H]1N2C(=O)NCc1ccc(Br)cc1
1 (yes)

Test call, this compound: COc1ccc(CCNCC(O)Cn2ccc3ccccc32)cc1OC (stereo not drawn)
1 (yes)

Test call, this compound: COCCNC(=O)c1ccc2nc(Cc3ccc(OC)c(OC)c3)oc2c1
0 (no)

Test call, this compound: CN(Cc1ccccc1)C(=O)c1ccc(COc2ccccc2)cc1
0 (no)

Test call, this compound: CC(C)c1ccc2c(c1)c(SC(C)(C)C)c(CC(C)(C)C(=O)O)n2Cc1ccc(Cl)cc1
1 (yes)

====

- EXPERIMENTAL DETAILS: Primary qHTS for delayed death inhibitors of the malarial parasite plastid, 48 hour incubation
- SETUP CONDITIONS: P. falciparum luciferase growth in erythrocytes; series mostly up to 28.7 µM
The campaign covered roughly 310,000 compounds. About 18,000 (5.8%) were called active. Not shown: some 22% with an inconclusive outcome. The call rests on the fitted dose curve; in most records, active means well fitted inhibition curve with a large enough effect; inconclusive means small, poorly fitted or top-dose-only effect, or another doubt; inactive means no such curve, though single readings can be large or run the other way. Many of the other results were omitted from the sample, so actives are more common in it than they were.
The reply should be one of these categories: active, inactive

Recorded results for 8 compounds are shown here.
[
  {
    "COMPOUND": "Cc1ccc(S(=O)(=O)N(CC(=O)NCc2ccco2)c2ccccc2C)cc1",
    "QUALITATIVE LABEL": "inactive"
  },
  {
    "COMPOUND": "COc1ccccc1C1SCCN1C(=O)c1ccc([N+](=O)[O-])cc1 (stereo not drawn)",
    "QUALITATIVE LABEL": "inactive"
  },
  {
    "COMPOUND": "Cc1cc(F)ccc1S(=O)(=O)Nc1ccc(C(=O)N(C)Cc2ccco2)cc1",
    "QUALITATIVE LABEL": "inactive"
  },
  {
    "COMPOUND": "COCc1c(C(=O)N/N=C(\\C)c2ccncc2)nnn1-c1nonc1N",
    "QUALITATIVE LABEL": "inactive"
  },
  {
    "COMPOUND": "Oc1cccc(/C=N/Nc2ccc(Cl)nn2)c1O",
    "QUALITATIVE LABEL": "active"
  },
  {
    "COMPOUND": "O=C(Nc1cccc(Cl)c1N1CCOCC1)c1cccnc1",
    "QUALITATIVE LABEL": "inactive"
  },
  {
    "COMPOUND": "C=CCNC(=O)COc1coc(CN2CCN(Cc3ccccc3)CC2)cc1=O",
    "QUALITATIVE LABEL": "inactive"
  },
  {
    "COMPOUND": "O=C(Nc1ccc(S(=O)(=O)N2CCCCC2)cc1)C1CCN(C(=O)c2ccc(F)cc2)CC1",
    "QUALITATIVE LABEL": "active"
  }
]

Test call, this compound: CCCCNC(=O)C1(O)c2ccccc2NC(=O)N1c1ccc(Cl)cc1 (stereo not drawn)
inactive

Test call, this compound: Cc1nc2nc(SCC(=O)Nc3cccc(F)c3)[nH]c2cc1Br
inactive

Test call, this compound: Cc1ccc(NC(=O)C2CC(=O)N(c3ccc4c(c3)OCCO4)C2)cc1S(=O)(=O)N1CCCCCC1 (stereo not drawn)
active

Test call, this compound: COc1ccc(/C=N/NC(=O)c2ccc3c(c2)OCCO3)c(OC)c1
inactive

Test call, this compound: CN(c1ccccc1)S(=O)(=O)c1cccc(C(=O)NNC(=O)c2ccncc2)c1
inactive

Test call, this compound: CC(=O)N1CC(=O)N(CC(=O)Nc2ccc(Br)cc2)C1=S
inactive

Test call, this compound: COc1ccc(C(=O)N2CCc3cc(OC)c(OC)cc3C2c2cccc([N+](=O)[O-])c2)cc1 (stereo not drawn)
active

Test call, this compound: O=C(NCCCN1CCCCC1)C1CC(=O)N(CCc2ccccc2)C1 (stereo not drawn)
inactive

====

- EXPERIMENTAL DETAILS: Primary qHTS for delayed death inhibitors of the malarial parasite plastid, 48 hour incubation
- SETUP CONDITIONS: P. falciparum luciferase growth in erythrocytes; series mostly up to 28.7 µM
The campaign covered roughly 310,000 compounds. About 18,000 (5.8%) were called active. Not shown: some 22% with an inconclusive outcome. Calls follow the shape of the dose curve; as a rule, active = well fitted inhibition curve with a large enough effect; inconclusive = small, poorly fitted or top-dose-only effect, or another doubt; inactive = no such curve, though single readings can be large or run the other way. The full list was thinned out, with actives kept by preference.
The reply should be one of these categories: Yes = active, No = inactive

[
  {
    "MOLECULE": "CC1CCCCN1CC(=O)NCc1ccc2c(c1)OCO2 (configuration not stated)",
    "QUALITATIVE LABEL": "No"
  }
]

Test call, this molecule: CCOCC(=O)Nc1sc2c(c1C(=O)OCC)CCCC2
No

Test call, this molecule: CCOc1cc2c(cc1OCC)C(C(=O)O)C(c1ccc(OC)c(O)c1)N(C)C2=O (configuration not stated)
No

Test call, this molecule: CC(C)=N/N=C1/NC(=O)C(Cc2ccccc2)S1 (configuration not stated)
No

Test call, this molecule: COc1ccccc1C(=O)NCCC(=O)NN1C(=O)NC2(CCCCC2)C1=O
No

Test call, this molecule: O=C(Nc1ccccc1)N1CCC(C(=O)N2CCN(Cc3ccccc3)CC2)CC1
No

Test call, this molecule: CCOC(=O)c1c(NC(=O)C2(C)Cc3ccccc3C(=O)O2)sc2c1CCCC2 (configuration not stated)
No

====

- EXPERIMENTAL DETAILS: Primary qHTS for delayed death inhibitors of the malarial parasite plastid, 48 hour incubation
- SETUP CONDITIONS: P. falciparum luciferase growth in erythrocytes; series mostly up to 28.7 µM
Hit rate of the full screen: of about 310,000 compounds, about 18,000 (5.8%) were called active. Roughly 22% stayed inconclusive and do not appear here. Calls come from the whole dose curve; as a rule, active = well fitted inhibition curve with a large enough effect; inconclusive = small, poorly fitted or top-dose-only effect, or another doubt; inactive = no such curve, though single readings can be large or run the other way. The list comes from a sample in which actives are over-represented; it also holds close analogues and randomly drawn compounds.
The reply should be one of these categories: TRUE = active, FALSE = inactive

Recorded results for 5 molecules are shown here.
[
  {
    "MOLECULE": "Cc1occc1C(=O)NC1CCCN(Cc2ccc(CC(C)C)cc2)C1 (configuration not stated)",
    "QUALITATIVE LABEL": "FALSE"
  },
  {
    "MOLECULE": "CSc1ccc(CNCCN2CCOCC2)cc1",
    "QUALITATIVE LABEL": "FALSE"
  },
  {
    "MOLECULE": "Cc1oc2c(c1C(=O)N1CCOCC1)C(=O)c1ccccc1C2=O",
    "QUALITATIVE LABEL": "TRUE"
  },
  {
    "MOLECULE": "CCN(CC)CCNC(=O)c1ccc(NC(=O)c2cc(-c3ccncc3)nc3ccccc23)cc1",
    "QUALITATIVE LABEL": "TRUE"
  },
  {
    "MOLECULE": "COc1cc(NC(=O)c2cc([N+](=O)[O-])ccc2Br)ccc1NC(=O)c1ccco1",
    "QUALITATIVE LABEL": "FALSE"
  }
]

Test call, this molecule: COCCN(C(=O)CSCc1ccc(C)cc1)c1c(N)n(CC(C)C)c(=O)[nH]c1=O
FALSE

Test call, this molecule: CCOC(=O)CC1C(=O)NCCN1c1nc2c(C)cccn2c(=O)c1/C=C1\SC(=S)N(C(C)CC)C1=O (configuration not stated)
TRUE
